biological target: ScMyo5; experiment: SPOT peptide array binding signal intensity (averaged, normalized) (arbitrary units (background-subtracted, floor 0; scale differs between SH3 domains)); higher = stronger binding of the SH3 domain to the peptide
metric.name: SPOT peptide array binding signal intensity
Give a plain numeric answer without units written out.

Look up SPOT peptide array binding signal intensity of DTIDNVKSKIQDKEG and report it.
1

Look up and state reported SPOT peptide array binding signal intensity for TTAPALPSLPPPPLL
2300

Give me measured SPOT peptide array binding signal intensity, please, for this binder: QRKSLRRPTLSKPAV
1

Identify measured SPOT peptide array binding signal intensity corresponding to PSPSSSPPPIPKTAN
1200

Read the entry NPTKSPPPPPSPSTM and write its reported SPOT peptide array binding signal intensity.
343

Please indicate SPOT peptide array binding signal intensity recorded for MPAPPPPPPPPPGAF
634

Give SPOT peptide array binding signal intensity for TEVPIPRRPPPPQAA
569
